tested.on: recombinant human TYRO3 (Homo sapiens, UniProt Q06418)
Sequence (Q06418 41-890): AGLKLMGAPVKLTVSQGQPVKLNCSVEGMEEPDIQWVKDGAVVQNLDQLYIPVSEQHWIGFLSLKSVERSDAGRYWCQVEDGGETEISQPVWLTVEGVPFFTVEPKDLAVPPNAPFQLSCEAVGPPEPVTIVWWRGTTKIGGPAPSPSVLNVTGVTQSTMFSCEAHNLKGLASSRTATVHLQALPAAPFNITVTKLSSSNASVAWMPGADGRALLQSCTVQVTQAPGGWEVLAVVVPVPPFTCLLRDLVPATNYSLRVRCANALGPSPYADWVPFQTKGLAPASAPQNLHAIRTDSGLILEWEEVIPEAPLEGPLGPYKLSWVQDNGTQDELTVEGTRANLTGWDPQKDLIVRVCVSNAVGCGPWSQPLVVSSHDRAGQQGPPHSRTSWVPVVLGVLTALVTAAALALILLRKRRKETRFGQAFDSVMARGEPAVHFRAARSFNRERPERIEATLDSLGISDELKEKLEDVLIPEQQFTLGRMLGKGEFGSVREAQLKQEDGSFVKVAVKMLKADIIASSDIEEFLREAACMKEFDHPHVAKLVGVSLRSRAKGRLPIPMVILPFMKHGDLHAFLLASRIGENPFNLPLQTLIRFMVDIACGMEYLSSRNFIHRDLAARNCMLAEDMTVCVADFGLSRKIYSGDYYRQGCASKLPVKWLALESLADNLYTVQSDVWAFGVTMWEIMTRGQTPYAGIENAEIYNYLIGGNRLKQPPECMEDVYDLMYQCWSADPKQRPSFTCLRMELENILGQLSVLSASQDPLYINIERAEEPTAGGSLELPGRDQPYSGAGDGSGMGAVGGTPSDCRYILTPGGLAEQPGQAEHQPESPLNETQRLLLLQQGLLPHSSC
assay.procedure: Biochemical potency, HTRF KinEASE-TK kinase assay
condition.details: 1 nM TYRO3, 700 μM ATP
pIC50: −log10 of the molar value.
measured.endpoint: pIC50

INSERT INTO measurements (smiles_string, measured_endpoint, recorded_value) VALUES
  ('Cc1cccnc1-c1ccc(-c2c[nH]c3ncc(-c4ccc5c(c4)CC[C@@H](N4CCCC4)CC5)cc23)cc1', 'pIC50', '> 7.00'),
  ('COc1ccnc(-c2ccc(-c3n[nH]c4ncc(-c5ccc6c(c5)CC[C@@H](N5C7COCC5C7)CC6)cc34)cc2)c1C', 'pIC50', '6.00 to 7.00'),
  ('Cc1cccc(-c2ccc(-c3n[nH]c4ncc(-c5ccc6c(c5)CC[C@@H](N5C7COCC5C7)CC6)cc34)cc2)n1', 'pIC50', '6.00 to 7.00'),
  ('Cc1cccnc1-c1ccc(-c2n[nH]c3ncc(-c4ccc5c(c4)CC[C@@](C)(N4CCC[C@H]4C)CC5)cc23)nc1', 'pIC50', '> 7.00'),
  ('O=C1CCCCN1c1cccnc1-c1ccc(-c2n[nH]c3ncc(-c4ccc5c(c4)CC[C@@H](N4C6COCC4C6)CC5)cc23)cc1', 'pIC50', '> 7.00'),
  ('CS(=O)(=O)c1ccccc1-c1ccc(-c2c[nH]c3ncc(-c4ccc5c(c4)CC[C@@H](N4C6COCC4C6)CC5)cc23)cc1', 'pIC50', '6.00 to 7.00');

Here are 2 compounds. What values of pIC50 were reported for them?
1. CC(C)(C#N)c1cccnc1-c1ccc(-c2n[nH]c3ncc(-c4ccc5c(c4)CC[C@@H](N4C6COCC4C6)CC5)cc23)cc1
2. Cc1ccnnc1-c1ccc(-c2c[nH]c3ncc(-c4ccc5c(c4)CC[C@@H](N4C6COCC4C6)CC5)cc23)cc1

Response line:
1: 6.00 to 7.00; 2: > 7.00

These data points were gathered from patent US12195482B1.
